Experiment summary: Pharmacokinetics after PO administration in mice
Type: in vivo
Conditions used: male, ICR, mouse, plasma, PO 5 mg/kg
Endpoint: half-life (h)
Give a bare numeral; the unit h is implied.

Indicate the recorded half-life value for this compound: O=C(O)c1ccccc1NC(=O)c1cccc2cccnc12 [2-QBA, 2-(quinoline-8-carboxamido)benzoic acid]
9.91

====

Experiment summary: Effect of activated charcoal (AC) on the pharmacokinetics of 2-QBA
Type: in vivo
Conditions used: male, ICR, mouse, plasma, iv, 1 mg/kg, mice, IV 1 mg/kg, AC (0.8 g/kg)
Endpoint: half-life

Indicate the recorded half-life value for this compound: `O=C(O)c1ccccc1NC(=O)c1cccc2cccnc12`
3.18 h

====

Experiment summary: Intestinal permeability in Ussing chamber
Assay type: in vitro ADME, mice
Conditions used: mouse, pH 7.4; range over intestinal segments, n = 3; read-out: permeability of marker compounds
Endpoint: Papp

Indicate the recorded Papp value for this compound: CC(C)NCC(O)COc1cccc2ccccc12 (stereo not shown) [propranolol, reference compound]
10 to 22.5 ×10⁻⁶ cm/s

====

Experiment summary: Effect of activated charcoal (AC) on the pharmacokinetics of 2-QBA
Type: in vivo
Conditions used: male, ICR, mouse, plasma, po, 2 mg/kg, mice, PO 2 mg/kg, Control
Endpoint: MRT

Indicate the recorded MRT value for this compound: `O=C(O)c1ccccc1NC(=O)c1cccc2cccnc12`
8.49 h

====

Experiment summary: Pharmacokinetics after PO administration in mice
Assay type: in vivo
Conditions used: male, ICR, mouse, plasma, PO 2 mg/kg, read-out: Cmax,1
Endpoint: Cmax (ng/mL)
Give a bare numeral; the unit ng/mL is implied.

Indicate the recorded Cmax value for this molecule: `O=C(O)c1ccccc1NC(=O)c1cccc2cccnc12`
283

====

Experiment summary: Water solubility
Assay type: physicochemical
Conditions used: n = 4
Endpoint: solubility (µg/mL)
Give a bare numeral; the unit µg/mL is implied.

Indicate the recorded solubility value for this compound: `O=C(O)c1ccccc1NC(=O)c1cccc2cccnc12`
35.6

====

Experiment summary: Effect of activated charcoal (AC) on the pharmacokinetics of 2-QBA
Type: in vivo
Conditions used: male, ICR, mouse, plasma, po, 2 mg/kg, mice, PO 2 mg/kg, Control; read-out: AUC24h
Endpoint: AUC(0-t) (ng·h/mL)
Give a bare numeral; the unit ng·h/mL is implied.

Indicate the recorded AUC(0-t) value for this molecule: `O=C(O)c1ccccc1NC(=O)c1cccc2cccnc12`
1930

====

Experiment summary: Pharmacokinetics after PO administration in mice
Format: in vivo
Conditions used: male, ICR, mouse, plasma, PO 5 mg/kg
Endpoint: AUC(0-inf) (ng·h/mL)
Give a bare numeral; the unit ng·h/mL is implied.

Indicate the recorded AUC(0-inf) value for this molecule: O=C(O)c1ccccc1NC(=O)c1cccc2cccnc12 [2-QBA, 2-(quinoline-8-carboxamido)benzoic acid]
4370

====

Experiment summary: Pharmacokinetics after PO administration in mice
Assay type: in vivo
Conditions used: male, ICR, mouse, plasma, po, 2 mg/kg, PO 2 mg/kg, read-out: Tmax,1
Endpoint: Tmax (min)
Give a bare numeral; the unit min is implied.

Indicate the recorded Tmax value for this compound: `O=C(O)c1ccccc1NC(=O)c1cccc2cccnc12`
12

====

Experiment summary: Pharmacokinetics after IV administration in mice
Type: in vivo
Conditions used: male, ICR, mouse, IV 0.5 mg/kg, plasma, read-out: Vdss
Endpoint: Vd (L/kg)
Give a bare numeral; the unit L/kg is implied.

Indicate the recorded Vd value for this compound: O=C(O)c1ccccc1NC(=O)c1cccc2cccnc12 [2-QBA, 2-(quinoline-8-carboxamido)benzoic acid]
4.73

====

Experiment summary: Effect of activated charcoal (AC) on the pharmacokinetics of 2-QBA
Assay type: in vivo
Conditions used: male, ICR, mouse, plasma, iv, 1 mg/kg, mice, IV 1 mg/kg, Control
Description: To elucidate the reabsorption mechanism of 2-QBA, a pharmacokinetic study of 2-QBA was conducted with activated charcoal (AC) administered PO. Male ICR mice (7 weeks old, 25–30 g) were fasted for 14–16 h prior to the administration of 2-QBA. […] WinNonlin 5.1 software (Pharsight Co., Mountain View, CA, USA) was used to calculate the pharmacokinetic parameters. […] CL is the total clearance, which is calculated by dividing the dose by AUCinf. […] All data are expressed as the mean ± standard deviation (SD).
Endpoint: AUC(0-inf) (ng·h/mL)
Give a bare numeral; the unit ng·h/mL is implied.

Indicate the recorded AUC(0-inf) value for this compound: `O=C(O)c1ccccc1NC(=O)c1cccc2cccnc12`
1330

====

Experiment summary: Effect of activated charcoal (AC) on the pharmacokinetics of 2-QBA
Assay type: in vivo
Conditions used: male, ICR, mouse, plasma, po, 2 mg/kg, mice, PO 2 mg/kg, AC (0.8 g/kg)
Endpoint: half-life (h)
Give a bare numeral; the unit h is implied.

Indicate the recorded half-life value for this compound: O=C(O)c1ccccc1NC(=O)c1cccc2cccnc12 [2-QBA, 2-(quinoline-8-carboxamido)benzoic acid]
5.5

====

Experiment summary: Pharmacokinetics after PO administration in mice
Type: in vivo
Conditions used: male, ICR, mouse, plasma, PO 15 mg/kg
Endpoint: MRT (h)
Give a bare numeral; the unit h is implied.

Indicate the recorded MRT value for this compound: `O=C(O)c1ccccc1NC(=O)c1cccc2cccnc12`
7.04

====

Experiment summary: Pharmacokinetics after IV administration in mice
Type: in vivo
Conditions used: male, ICR, mouse, IV 1.0 mg/kg, plasma
Endpoint: MRT

Indicate the recorded MRT value for this molecule: O=C(O)c1ccccc1NC(=O)c1cccc2cccnc12 [2-QBA, 2-(quinoline-8-carboxamido)benzoic acid]
3.03 h

====

Experiment summary: Effect of activated charcoal (AC) on the pharmacokinetics of 2-QBA
Assay type: in vivo
Conditions used: male, ICR, mouse, plasma, po, 2 mg/kg, mice, PO 2 mg/kg, AC (0.8 g/kg) 2 h after dosing
Endpoint: Cmax (ng/mL)
Give a bare numeral; the unit ng/mL is implied.

Indicate the recorded Cmax value for this compound: `O=C(O)c1ccccc1NC(=O)c1cccc2cccnc12`
315

====

Experiment summary: Pharmacokinetics after IV administration in mice
Format: in vivo
Conditions used: male, ICR, mouse, IV 0.5 mg/kg, plasma
Endpoint: MRT (h)
Give a bare numeral; the unit h is implied.

Indicate the recorded MRT value for this compound: O=C(O)c1ccccc1NC(=O)c1cccc2cccnc12 [2-QBA, 2-(quinoline-8-carboxamido)benzoic acid]
3.88

====

Experiment summary: Pharmacokinetics after PO administration in mice
Format: in vivo
Conditions used: male, ICR, mouse, plasma, PO 5 mg/kg
Experimental: Male ICR mice (7 weeks old, […]; Samtako, Osan, Korea) were acclimated to the animal facility at Kyungpook National University for one week with free access to animal chow and water. […] WinNonlin 5.1 software (Pharsight Co., Mountain View, CA, USA) was used to calculate the pharmacokinetic parameters. […] CL is the total clearance, which is calculated by dividing the dose by AUCinf. Vdss is the volume of the distribution at a steady state, calculated from MRTxCL. […]
Endpoint: MRT
Form field: result (number plus unit)

Indicate the recorded MRT value for this compound: O=C(O)c1ccccc1NC(=O)c1cccc2cccnc12 [2-QBA, 2-(quinoline-8-carboxamido)benzoic acid]
13.7 h

====

Experiment summary: Pharmacokinetics after PO administration in mice
Assay type: in vivo
Conditions used: male, ICR, mouse, plasma, PO 15 mg/kg, read-out: AUC24h
Endpoint: AUC(0-t) (ng·h/mL)
Give a bare numeral; the unit ng·h/mL is implied.

Indicate the recorded AUC(0-t) value for this compound: `O=C(O)c1ccccc1NC(=O)c1cccc2cccnc12`
10600

====

Experiment summary: Effect of activated charcoal (AC) on the pharmacokinetics of 2-QBA
Assay type: in vivo
Conditions used: male, ICR, mouse, plasma, iv, 1 mg/kg, mice, IV 1 mg/kg, AC (0.8 g/kg)
Endpoint: AUC(0-inf) (ng·h/mL)
Give a bare numeral; the unit ng·h/mL is implied.

Indicate the recorded AUC(0-inf) value for this compound: `O=C(O)c1ccccc1NC(=O)c1cccc2cccnc12`
1210

====

Experiment summary: Pharmacokinetics after IV administration in mice
Assay type: in vivo
Conditions used: male, ICR, mouse, IV 1.0 mg/kg, plasma
Endpoint: clearance
Form field: result (number plus unit)

Indicate the recorded clearance value for this molecule: `O=C(O)c1ccccc1NC(=O)c1cccc2cccnc12`
16.3 mL/min/kg
